I'd be grateful if you could share measured T/C for these entries.
System: P388 leukemia ip, CD2F1 mice, survival T/C
Experiment: NCI In Vivo Anticancer Drug Screen. Data for tumor model P388 Leukemia (intraperitoneal) in CD2F1 (CDF1) mice
Settings: endpoint: median survival time; dose: 25.0 mg/kg/injection; schedule: Q01DX009 (ip); vehicle: saline; higher = longer survival
Toxic doses and inconclusive results are not listed.

"CN=C(C)Nc1ccccc1OC" on P388 leukemia ip, CD2F1 mice, survival T/C gives T/C = 114 % of control

"C=CCOc1ccccc1/C=N/[N+](C)(C)C" on P388 leukemia ip, CD2F1 mice, survival T/C gives T/C = 110 % of control

CC(C)CCCC(C)C1CCC2C3CC=C4CC(O)CCC4(C)C3CCC12C (stereo not drawn) (tested in a mixture with another compound) on P388 leukemia ip, CD2F1 mice, survival T/C gives T/C = 94 % of control

"O=NNc1ccc(C(=O)O)cn1" on P388 leukemia ip, CD2F1 mice, survival T/C gives T/C = 97 % of control

"CCCCCCc1c(C#N)c(S)[nH]c(=S)c1C#N" on P388 leukemia ip, CD2F1 mice, survival T/C gives T/C = 106 % of control

"CC(=O)CC(=O)Nc1ccccc1" on P388 leukemia ip, CD2F1 mice, survival T/C gives T/C = 94 % of control

"CC(=O)NCC[N+](C)(C)C" on P388 leukemia ip, CD2F1 mice, survival T/C gives T/C = 108 % of control

"CCc1cccc(CC)c1N1C(=O)COCC1=O" on P388 leukemia ip, CD2F1 mice, survival T/C gives T/C = 92 % of control

"Clc1nc2ccccc2[nH]1" on P388 leukemia ip, CD2F1 mice, survival T/C gives T/C = 101 % of control

O=S(=O)(c1ccccc1)C(SC(=S)Sc1ccccc1)Sc1ccccc1 (stereo not drawn) on P388 leukemia ip, CD2F1 mice, survival T/C gives T/C = 107 % of control

"O=P(Oc1cccc2ccccc12)(N1CC1)N1CC1" on P388 leukemia ip, CD2F1 mice, survival T/C gives T/C = 100 % of control

CC1(C(F)(F)F)CC(=O)NN1 (stereo not drawn) on P388 leukemia ip, CD2F1 mice, survival T/C gives T/C = 104 % of control

"O=NN(CCCCl)C(=O)NC1CCCCC1" on P388 leukemia ip, CD2F1 mice, survival T/C gives T/C = 98 % of control
